Molecular target: mAChR M4 (UniProt P08173)
Construct: hM1 and hM4 cDNAs were purchased from Missouri S&T cDNA Resource
Experiment: mAChR M4 cell-based functional assay (calcium mobilization, Fluo-4, FDSS)
Settings: % ACh maximum at 30 μM
Protocol: Chinese hamster ovary (CHO-K1) cells stably expressing rat (r)M1 were purchased from the American Type Culture Collection and cultured according to their indicated protocol. […] Calcium flux was measured using the Functional Drug Screening System (FDSS) 6000 (Hamamatsu Corporation, Tokyo, Japan) as an increase in the fluorescent static ratio. […] Agonist activity was analyzed as a concentration-dependent increase in calcium mobilization upon compound addition. […]
Label criterion met when Emax (%)* is at or above 50%; otherwise label criterion not met.

>  <molecule.smiles>
Cc1cc(C)c2c(n1)sc1c(NCC(C)C)n[nH]c12

>  <discrete.label>
criterion met

$$$$
>  <molecule.smiles>
Cc1nc2sc3c(NCc4cccs4)nn(C)c3c2c(C)c1Cl

>  <discrete.label>
criterion not met

$$$$
>  <molecule.smiles>
Cc1nc2sc3c(NCC4CC4)n[nH]c3c2c(C)c1Cl

>  <discrete.label>
criterion met

$$$$
>  <molecule.smiles>
Cc1nc2sc3c(NCc4ccc(F)cc4)nn(C)c3c2c(C)c1Cl

>  <discrete.label>
criterion met

$$$$

---

Biological target: mAChR M4 (UniProt P08173)
Construct: hM1 and hM4 cDNAs were purchased from Missouri S&T cDNA Resource
Sequence (P08173 1-479): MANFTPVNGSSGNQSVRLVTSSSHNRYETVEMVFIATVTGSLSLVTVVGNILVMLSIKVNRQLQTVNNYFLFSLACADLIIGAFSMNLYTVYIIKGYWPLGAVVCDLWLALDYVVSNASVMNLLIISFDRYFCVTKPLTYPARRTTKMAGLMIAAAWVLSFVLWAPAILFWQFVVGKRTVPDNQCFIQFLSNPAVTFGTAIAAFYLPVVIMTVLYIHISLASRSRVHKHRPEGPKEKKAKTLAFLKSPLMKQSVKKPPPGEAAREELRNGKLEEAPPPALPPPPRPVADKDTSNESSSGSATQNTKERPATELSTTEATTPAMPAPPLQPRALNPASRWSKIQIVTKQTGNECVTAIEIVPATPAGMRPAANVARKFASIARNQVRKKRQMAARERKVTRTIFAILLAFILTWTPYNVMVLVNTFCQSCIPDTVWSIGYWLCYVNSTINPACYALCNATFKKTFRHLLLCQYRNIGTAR
Test: mAChR M4 cell-based functional assay (calcium mobilization, Fluo-4, FDSS)
Conditions: % ACh maximum at 30 μM

>  <compound>
Cc1cc(C)c2c(n1)sc1c(NCc3ccncc3)nn(C)c12 [Compound 42]

>  <measure.unit>
%

>  <Emax (%)*>
93

$$$$
>  <compound>
Cc1cc(C)c2c(n1)sc1c(NCc3ccc(F)c(F)c3)nn(C)c12 [Compound 60]

>  <measure.unit>
%

>  <Emax (%)*>
63

$$$$
>  <compound>
Cc1cc(C)c2c(n1)sc1c(NC3CCCC3)nn(CCO)c12 [Compound 107]

>  <measure.unit>
%

>  <Emax (%)*>
65

$$$$
>  <compound>
Cc1cc(C)c2c(n1)sc1c(NC3CCSC3)nn(C)c12 (stereo not drawn) [Compound 73]

>  <measure.unit>
%

>  <Emax (%)*>
84

$$$$
>  <compound>
Cc1cc(C)c2c(n1)sc1c(NC3CCCC3)nn(C)c12 [Compound 64]

>  <measure.unit>
%

>  <Emax (%)*>
83

$$$$
>  <compound>
COc1ccc(CNc2n[nH]c3c2sc2nc(C)cc(C)c23)cc1 [Compound 6]

>  <measure.unit>
%

>  <Emax (%)*>
58

$$$$
>  <compound>
Cc1cc(C)c2c(n1)sc1c(NCC3CCNCC3)nn(C)c12 [Compound 123]

>  <measure.unit>
%

>  <Emax (%)*>
30

$$$$
>  <compound>
Cc1cc(C)c2c(n1)sc1c(NCC3CCCN3C(=O)OC(C)(C)C)nn(C)c12 (stereo not drawn) [Compound 85]

>  <measure.unit>
%

>  <Emax (%)*>
37

$$$$
>  <compound>
Cc1cc(C)c2c(n1)sc1c(NCCC(C)C)nn(C)c12 [Compound 32]

>  <measure.unit>
%

>  <Emax (%)*>
81

$$$$
